Reported inhibition values for the following compounds.
# System under test: Neuropeptides B/W receptor type 1 (Homo sapiens)
# Test summary: GPR7 receptor antagonists, primary screen, cell-based, fluorescence, single concentration (AID 1861);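 also: cells stimulated with the agonist NPW; 0% = agonist with vehicle and 100% = vehicle without agonist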
# Details: GPR7-expressing cells, fluorescence antagonist assay; at 4.4 µM; active compounds read high
Screen size: about 290,000 compounds; about 3,100 (1.1%) were called active. The list comes from a sample in which actives are over-represented; it also holds close analogues and randomly drawn compounds.
Respond with the bare value in %.

Past entries and their recorded results:
>  <Compound>
Cc1cc(C)cc(N(CC(=O)NC2CCCC2)C(=O)CCC(=O)Nc2nccs2)c1

>  <Quantity name>
inhibition

>  <Value units>
%

>  <Data value>
4.8

$$$$
>  <Compound>
CC(=O)c1cccc(NC(=O)c2ccncc2)c1

>  <Quantity name>
inhibition

>  <Value units>
%

>  <Data value>
-7.93

$$$$

Enter recorded inhibition with Neuropeptides B/W receptor type 1 (Homo sapiens) for Cc1ccc(NC(=O)C2CC(c3ccc(F)cc3)=NO2)cc1 (centres undefined) here.
-5.41

Enter recorded inhibition with Neuropeptides B/W receptor type 1 (Homo sapiens) for `Cc1cc(Cl)ccc1OCCCC(=O)NCc1ccncc1` here.
2.96

Enter recorded inhibition with Neuropeptides B/W receptor type 1 (Homo sapiens) for `Cc1cccc(NC(=O)c2nc(S(=O)(=O)Cc3ccccc3)ncc2Cl)c1` here.
9.7

Enter recorded inhibition with Neuropeptides B/W receptor type 1 (Homo sapiens) for `C=C(C)C(=O)Nc1cccc(C(C)=O)c1` here.
-8.07

Enter recorded inhibition with Neuropeptides B/W receptor type 1 (Homo sapiens) for `CC(C)c1nnc(NC(=O)COC(=O)/C=C/c2ccc([N+](=O)[O-])cc2)s1` here.
-6.73

====

# System under test: Neuropeptides B/W receptor type 1 (Homo sapiens)
# Test summary: GPR7 receptor antagonists, primary screen, cell-based, fluorescence, single concentration (AID 1861)
# Details: GPR7-expressing cells, fluorescence antagonist assay; at 4.4 µM
The whole screen tested about 290,000 compounds, of which about 3,100 (1.1%) were called active. Cut-off read from the data, not from the text of the source: active = inhibition above about 16% (passing the limit was not always enough); inactive = the rest. The sample holds actives, similar compounds and a random draw of the others, so the mix is not that of the screen.
Pick one: active, inactive

What call does the record list for `CCc1nc2ccc(C(=O)N3CCN(c4cccc(Cl)c4)CC3)cc2nc1CC` ?
inactive

What call does the record list for COc1cccc(/C=C2/SC(=S)N(CC(=O)NC3C=CS(=O)(=O)C3)C2=O)c1 (stereo not drawn) ?
inactive

What call does the record list for Cc1ccc(S(=O)(=O)N(CC(O)CN2CCCCC2)c2cccc([N+](=O)[O-])c2)cc1 (stereo not drawn) ?
inactive

====

# System under test: Neuropeptides B/W receptor type 1 (Homo sapiens) (UniProt P48145)
# Sequence (P48145 whole entry, looked up): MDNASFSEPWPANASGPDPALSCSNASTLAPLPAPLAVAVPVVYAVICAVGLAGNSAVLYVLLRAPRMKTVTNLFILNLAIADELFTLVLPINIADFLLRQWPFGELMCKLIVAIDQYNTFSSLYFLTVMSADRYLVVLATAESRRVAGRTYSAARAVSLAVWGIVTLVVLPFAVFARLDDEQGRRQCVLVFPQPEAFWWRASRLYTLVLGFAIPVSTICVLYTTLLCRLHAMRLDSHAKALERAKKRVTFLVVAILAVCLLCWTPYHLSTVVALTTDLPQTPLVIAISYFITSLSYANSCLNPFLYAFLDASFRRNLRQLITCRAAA
# Test summary: GPR7 receptor antagonists, primary screen, cell-based, fluorescence, single concentration (AID 1861);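 also: cells stimulated with the agonist NPW; 0% = agonist with vehicle and 100% = vehicle without agonist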
# Details: GPR7-expressing cells, fluorescence antagonist assay; at 4.4 µM; active compounds read high
The whole screen tested about 290,000 compounds, of which about 3,100 (1.1%) were called active. Only a selection was taken, and actives are over-represented in it overall.
Quantity name: inhibition (%)
Respond with the bare value in %.

Past entries and their recorded results:
>  <Compound>
COc1ccc(/C=N/NC(=O)C2CC2)c(OC)c1OC

>  <inhibition / %>
-4.35

$$$$
>  <Compound>
COc1cccc(-c2cc(C(=O)N3CCN(c4ccccc4OC)CC3)no2)c1

>  <inhibition / %>
-15.8

$$$$
>  <Compound>
CC1(C)CC(CNCCC(c2ccc(F)cc2)c2ccco2)CCO1 (centres undefined)

>  <inhibition / %>
27.9

$$$$
>  <Compound>
CCOc1ccc(NC(=O)CCNC(=O)c2ccc(Br)cc2)cc1

>  <inhibition / %>
-13.4

$$$$
>  <Compound>
Cc1ccccc1CSCCNC(=O)c1ccc(N(C)S(=O)(=O)c2ccccc2)cc1

>  <inhibition / %>
1.47

$$$$
>  <Compound>
CCOC(=O)C1CSC(CC(=O)Nc2ccc(OCC)cc2)C(=O)N1 (centres undefined)

>  <inhibition / %>
31.6

$$$$

Enter recorded inhibition with Neuropeptides B/W receptor type 1 (Homo sapiens) (UniProt P48145) for `CCn1c(C)cc(=O)cc1-c1ccc(Cl)cc1` here.
12.6

Enter recorded inhibition with Neuropeptides B/W receptor type 1 (Homo sapiens) (UniProt P48145) for CCOC(=O)C1=C(C)NC(SC)=NC1c1ccccc1 (centres undefined) here.
-17

Enter recorded inhibition with Neuropeptides B/W receptor type 1 (Homo sapiens) (UniProt P48145) for `CC(=O)Nc1ccc(NC(=O)CS(=O)(=O)c2cn(CC(=O)N3CCCCC3)c3ccccc23)cc1` here.
-0.17

====

# System under test: Neuropeptides B/W receptor type 1 (Homo sapiens) (UniProt P48145)
# Test summary: GPR7 receptor antagonists, primary screen, cell-based, fluorescence, single concentration (AID 1861);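 also: cells stimulated with the agonist NPW; 0% = agonist with vehicle and 100% = vehicle without agonist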
# Details: GPR7-expressing cells, fluorescence antagonist assay; at 4.4 µM; active compounds read high
Screen size: about 290,000 compounds; about 3,100 (1.1%) were called active. Many of the other results were omitted from the sample, so actives are more common in it than they were.
Quantity name: inhibition

Past entries and their recorded results:
>  <Compound>
CCOc1ccc2nc(N(CCN(C)C)C(=O)c3ccc4ccccc4c3)sc2c1

>  <Data value>
3% (inactive)

$$$$
>  <Compound>
CN(c1ccccc1)S(=O)(=O)c1ccc(NC(=O)COc2ccccc2)cc1

>  <Data value>
1.02% (inactive)

$$$$
>  <Compound>
Brc1c(CSc2nncc3ccccc23)nc2ccccn12

>  <Data value>
-2.42% (inactive)

$$$$
>  <Compound>
CCc1ccc(N(C(=O)c2csnn2)C(C(=O)NC2CCCCC2)c2ccncc2)cc1 (stereo not drawn)

>  <Data value>
22.7% (active)

$$$$
>  <Compound>
Cc1ccc(C(=O)OCC(=O)NCc2ccc3c(c2)OCO3)s1

>  <Data value>
-1.76% (inactive)

$$$$
>  <Compound>
Cc1ccc(C)c(C(=O)N2CCC(n3nccc3NC(=O)C3CC3)CC2)c1

>  <Data value>
-10.3% (inactive)

$$$$
>  <Compound>
Cc1cc(OCc2ccc(C(=O)Nc3ccc(C(=O)O)cc3)o2)ccc1Cl

>  <Data value>
38% (active)

$$$$
>  <Compound>
COc1ccc(F)cc1S(=O)(=O)N1CCCCC1

>  <Data value>
-5.33% (inactive)

$$$$

Enter recorded inhibition with Neuropeptides B/W receptor type 1 (Homo sapiens) (UniProt P48145) for `O=C(CCSc1ccccc1)N1CCN(c2ccccc2F)CC1` here.
1.08% (inactive)

Enter recorded inhibition with Neuropeptides B/W receptor type 1 (Homo sapiens) (UniProt P48145) for COc1cc(NC(=O)CN2C(=O)NC(C)(c3ccc(OC(F)F)cc3)C2=O)cc(OC)c1OC (stereo not drawn) here.
25.8% (active)

Enter recorded inhibition with Neuropeptides B/W receptor type 1 (Homo sapiens) (UniProt P48145) for `CCn1c(SCC(=O)Nc2ccc3c(c2)OCCO3)nnc1-c1ccncc1` here.
-4.19% (inactive)

Enter recorded inhibition with Neuropeptides B/W receptor type 1 (Homo sapiens) (UniProt P48145) for `O=C(COc1ccccc1)NCc1ccc2c(c1)OCO2` here.
26% (active)

Enter recorded inhibition with Neuropeptides B/W receptor type 1 (Homo sapiens) (UniProt P48145) for CCC(Cc1ccccc1)NC(=O)C1CCCCC1 (stereo not drawn) here.
-7.32% (inactive)

====

# System under test: Neuropeptides B/W receptor type 1 (Homo sapiens)
# Test summary: GPR7 receptor antagonists, primary screen, cell-based, fluorescence, single concentration (AID 1861);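 also: cells stimulated with the agonist NPW; 0% = agonist with vehicle and 100% = vehicle without agonist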
# Details: GPR7-expressing cells, fluorescence antagonist assay; at 4.4 µM; active compounds read high
Among all 290,000 compounds or so, about 3,100 (1.1%) were called active. The sample holds actives, similar compounds and a random draw of the others, so the mix is not that of the screen.
Quantity name: inhibition (%)
Respond with the bare value in %.

Past entries and their recorded results:
>  <Compound>
Cc1cccc(OCC(=O)NC(=S)Nc2ccccc2N2CCOCC2)c1

>  <inhibition [%]>
-14.9

$$$$
>  <Compound>
COc1cccc(-n2c(SCC(=O)c3c[nH]c4ccccc34)nc3ccccc3c2=O)c1

>  <inhibition [%]>
-11.6

$$$$
>  <Compound>
Cc1nn(C)cc1S(=O)(=O)N1CCN(c2ccc(F)cc2)CC1

>  <inhibition [%]>
-4.94

$$$$
>  <Compound>
Cc1ccc(S(=O)(=O)N2CCC(C)CC2)cc1C(=O)NCc1ccccn1

>  <inhibition [%]>
-11.1

$$$$
>  <Compound>
COc1cccc(/C=N/Nc2ccc(Cl)nn2)c1

>  <inhibition [%]>
-14.8

$$$$
>  <Compound>
Cc1ccccc1CN1C[C@@H]2C[C@@H](c3ccc4nsnc4c3)N3CCC[C@@]23C1=O

>  <inhibition [%]>
-4.53

$$$$

Using the record for `O=C(C[n+]1ccccc1)N/N=C/c1ccc(O)cc1` , state its measured inhibition.
-1.15

Using the record for COCC(=O)N1CCCC(C(=O)c2ccc(C(F)(F)F)cc2)C1 (centres undefined) , state its measured inhibition.
-16.7

Using the record for CCC(=O)NC(Nc1nc2ccc(C)cc2s1)(C(=O)OC)C(F)(F)F (centres undefined) , state its measured inhibition.
-6.22
